assay-comment: Stability in aqueous carbonate/bicarbonate buffer at pH 10.16 assessed as compound decomposition measured within 8 mins by LC-MS analysis
Assay type: physicochemical
condition-description: read-out: Drug degradation
property-measured: degraded at 8 min (%)
Answer with a number only, understood to be in %.

Task: Write down degraded at 8 min measured for item C[C@H](Cn1cnc2c(N)ncnc21)OCP(=O)(O)OCCS
Output: 100

====

assay-comment: Cytotoxicity in uninfected human hepG2 assessed as reduction in cell viability by XTT assay
Format: cell-based
condition-description: uninfected HepG2 cells
property-measured: CC50

Task: Write down CC50 measured for item CCCCCCCCCCCCSSCCCCCCOP(=O)(O)CO[C@H](C)Cn1cnc2c(N)ncnc21
Output: > 50 µM

====

Test system: HepG2
assay-comment: Cytotoxicity in uninfected human hepG2 assessed as reduction in cell viability by XTT assay
Type: cell-based
condition-description: hepg2
property-measured: CC50

Task: Under HepG2: report CC50 of CCCCCCCCCCCCCCCCSSCCCCOP(=O)(O)CO[C@H](C)Cn1cnc2c(N)ncnc21 .
Output: > 50 µM

Others:
Task: Under HepG2: report CC50 of C[C@H](Cn1cnc2c(N)ncnc21)OCP(=O)(O)OCCCCS .
Output: > 100 µM

Task: Under HepG2: report CC50 of C[C@H](Cn1cnc2c(N)ncnc21)OCP(=O)(O)OCCS .
Output: > 100 µM

Task: Under HepG2: report CC50 of CCCCCCCCCCCCCCCCSSCCOP(=O)(O)CO[C@H](C)Cn1cnc2c(N)ncnc21 .
Output: > 25 µM

The measurements presented in this section are drawn from ChEMBL document CHEMBL4680098.
